Target: GSK3b (GST-full length GSK3b) (Homo sapiens (Human), UniProt P49841)
Sequence (P49841 whole entry): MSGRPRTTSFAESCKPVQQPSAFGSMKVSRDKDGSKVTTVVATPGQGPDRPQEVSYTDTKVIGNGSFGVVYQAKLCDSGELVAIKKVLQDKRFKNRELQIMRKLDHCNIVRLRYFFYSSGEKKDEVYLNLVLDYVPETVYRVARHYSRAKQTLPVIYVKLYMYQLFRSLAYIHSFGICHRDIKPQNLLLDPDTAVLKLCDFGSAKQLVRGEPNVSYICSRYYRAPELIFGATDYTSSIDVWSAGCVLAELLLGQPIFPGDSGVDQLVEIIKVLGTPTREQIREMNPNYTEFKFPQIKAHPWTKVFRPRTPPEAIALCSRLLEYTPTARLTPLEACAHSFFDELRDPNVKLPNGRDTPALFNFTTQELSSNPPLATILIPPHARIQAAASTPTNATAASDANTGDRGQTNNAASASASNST
Assay: GSK3b TR-FRET kinase assay
Type: biochemical
Conditions: 1 nM GSK3b, 2 μM ATP, 30 minute preincubation; geometric mean; read-out: GSK3-B TR-FRET BIOCHEMICAL (TR-FRET); GMean; IC50
pIC50: −log10 of the molar value.
Each item that follows carries a reported pIC50.

molecule	pIC50
CCC1(c2ccc(C)cc2)C2=C(CC(C)(C)CC2=O)Nc2n[nH]cc21 (stereo not shown)	< 5.30
CCC1(c2cccc(S(=O)(=O)C3CC3)c2)C2=C(CC(C)(C)NC2=O)Nc2n[nH]c(C(F)(F)F)c21 (stereo not shown) [Compound 947859]	≥ 7.00
CCC1(c2cccc(-c3ccncc3Cl)c2)C2=C(CC(C)(C)NC2=O)Nc2n[nH]cc21 (stereo not shown) [Compound 948020]	6.00 to 7.00

Would you kindly look at the next entry?
Lab note: CCC1(c2cccc(-c3ccccc3)c2)C2=C(CC(C)(C)CC2=O)Nc2n[nH]cc21 (stereo not shown) [Compound 801369] gave pIC50 of < 5.30

Recorded values, source patent US20250313563A1.
